Tested on: wild oat
protocol description: Test B pre/postemergence wild oat
Assay type: in vivo, Avena fatua
cond: Rate 250 g/ha, Postemergence; scale 0 to 10, 0 is no effect, 10 is complete control
endpoint name: Plant response rating, Wild oats

Can you share its Plant response rating, Wild oats? I mean this molecule: CC(C)N(C(=O)n1oc(=O)n([C@H](C)c2ccccc2)c1=O)c1ccc(Cl)cc1
0

Record: CCOC(=O)Cn1c(=O)on(C(=O)N(c2ccc(F)cc2)C(C)C)c1=O
0

Similarly, Cc1nn(C)c(Cl)c1-n1c(=O)on(C(=O)N(c2ccc(F)cc2)C(C)C)c1=O ?
0

Continue with C=C(C)Cn1c(=O)on(C(=O)N(c2ccc(F)cc2)C(C)C)c1=O
4

Likewise for Cc1ccccc1Cn1c(=O)on(C(=O)N(c2ccc(Cl)cc2)C(C)C)c1=O ?
0

---

System: rape
protocol description: Test B pre/postemergence rape
Format: in vivo, Brassica napus
cond: Preemergence, Rate 125 g/ha; scale of 0 to 10 where 0 is no effect and 10 is complete control
endpoint name: Plant response rating, Rape
Enter a number only.

Given Cc1nc(C)c(C(C)n2c(=O)on(C(=O)N(c3ccc(F)cc3F)C(C)C)c2=O)s1 (centres unmarked) , state its recorded Plant response rating, Rape.
0

Let us now turn to CC(C)N(C(=O)n1oc(=O)n(CC(F)F)c1=O)c1ccccc1
9

Next compound up: COC(CCl)n1c(=O)on(C(=O)N(c2ccccc2)C(C)C)c1=O (centres unmarked)
6

CC(C)N(C(=O)n1oc(=O)n(CC2=NOCCC2)c1=O)c1ccccc1 ?
0

// same read-out, input: CC(C)N(C(=O)n1oc(=O)n(C(C)C2=NOCC2)c1=O)c1ccc(F)cc1F (racemic)
0

# repeat for COC(C)n1c(=O)on(C(=O)N(c2ccc(F)cc2)C(C)C)c1=O (centres unmarked)
0

Try the compound CCC(C)N(C(=O)n1oc(=O)n(C(C)C)c1=O)c1ccc(F)cc1 (centres unmarked)
0

Input CC(C)N(C(=O)n1oc(=O)n(C(C)CCl)c1=O)c1ccccc1 (centres unmarked)
8

---

Test system: crabgrass
protocol description: Test B pre/postemergence crabgrass
Format: in vivo, Digitaria sanguinalis
cond: Preemergence, Rate 62 g/ha; scale 0 to 10 (0 no effect, 10 complete control)
endpoint name: Plant response rating, Crabgrass
Please reply with the value in numeric form only.

What value of Plant response rating, Crabgrass has been reported for the following compound? CC(C)N(C(=O)n1oc(=O)n(CCCC(F)(F)F)c1=O)c1ccc(F)cc1
9

Moving on to the next compound: CC(C)N(C(=O)n1oc(=O)n(C2(C)CC2)c1=O)c1ccccc1
9

Next: CC(C)N(C(=O)n1oc(=O)[nH]c1=O)c1ccc(F)cc1F
0

Can you check CSCCn1c(=O)on(C(=O)N(c2ccccc2)C(C)C)c1=O next?
0

---

System: surinam grass
protocol description: Test B pre/postemergence surinam grass
Type: in vivo, Brachiaria decumbens
cond: Preemergence, Rate 125 g/ha; scale of 0 to 10 where 0 is no effect and 10 is complete control
Assign Plant response rating, B. signalgrass to each entry below.
# output: bare number, no unit

For the record CC(C)N(C(=O)n1oc(=O)n(CC#N)c1=O)c1ccc(Cl)cc1 , what value of Plant response rating, B. signalgrass is listed for surinam grass?
0

Can you handle CC(C)N(C(=O)n1oc(=O)n(C(C)C(=O)N2CCOCC2)c1=O)c1ccc(Cl)cc1 (stereo not shown) next?
3

Query CC(C)N(C(=O)n1oc(=O)[nH]c1=O)c1ccc(F)cc1F next
0

Thanks! And CC(C)N(C(=O)n1oc(=O)n(C(C)C#N)c1=O)c1ccc(Cl)cc1 (stereo not shown) ?
0
